B1: scFv; the commonest letter at each place (parent)
chain 1: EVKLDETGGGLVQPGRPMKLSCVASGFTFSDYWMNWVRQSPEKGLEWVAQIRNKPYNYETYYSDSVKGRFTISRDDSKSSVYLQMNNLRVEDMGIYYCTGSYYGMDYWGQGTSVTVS
chain 2: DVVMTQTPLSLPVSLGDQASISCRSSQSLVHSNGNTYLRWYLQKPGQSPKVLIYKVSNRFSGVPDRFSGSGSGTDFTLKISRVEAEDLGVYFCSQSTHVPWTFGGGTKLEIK

- Variants of: B1
- Experiment Description: Kd (Tite-Seq)
- Condition Label: with fluorescein; format: scFv 4-4-20, heavy + light
Measured Endpoint: Kd

Request: Returns the measured Kd for the input variant. Input: chain 1 Y102A W108P
Response: 0.000504 µM

Request: Returns the measured Kd for the input variant. Input: chain 1 G104D Y107L
Response: ≥ 10 µM

Request: Returns the measured Kd for the input variant. Input: chain 1 W108L G109I
Response: ≥ 10 µM

Request: Returns the measured Kd for the input variant. Input: chain 1 S30R M34D
Response: ≥ 10 µM

Request: Returns the measured Kd for the input variant. Input: chain 1 D106Q W108G
Response: ≥ 10 µM

Request: Returns the measured Kd for the input variant. Input: chain 1 T28S
Response: 0.00325 µM

Request: Returns the measured Kd for the input variant. Input: chain 1 W33M M34H N35K
Response: ≥ 10 µM

Request: Returns the measured Kd for the input variant. Input: chain 1 Y102N D106E
Response: ≥ 10 µM

Request: Returns the measured Kd for the input variant. Input: chain 1 S30M Y32R
Response: 4.84 µM

Request: Returns the measured Kd for the input variant. Input: chain 1 T28D
Response: 0.00184 µM

Request: Returns the measured Kd for the input variant. Input: chain 1 G100Y S101E
Response: ≥ 10 µM

Request: Returns the measured Kd for the input variant. Input: chain 1 T28L M34D
Response: ≥ 10 µM

Request: Returns the measured Kd for the input variant. Input: chain 1 G100V M105S
Response: ≥ 10 µM

Request: Returns the measured Kd for the input variant. Input: chain 1 W108C G109E
Response: ≥ 10 µM

Request: Returns the measured Kd for the input variant. Input: chain 1 S30A M34C
Response: 0.00104 µM

Request: Returns the measured Kd for the input variant. Input: chain 1 S30T V37P
Response: 0.0592 µM

Request: Returns the measured Kd for the input variant. Input: chain 1 G109D
Response: 3.64 µM

Request: Returns the measured Kd for the input variant. Input: chain 1 M105A G109F
Response: ≥ 10 µM

Request: Returns the measured Kd for the input variant. Input: chain 1 W33Y
Response: ≥ 10 µM

Request: Returns the measured Kd for the input variant. Input: chain 1 D31P W33F
Response: ≥ 10 µM

Request: Returns the measured Kd for the input variant. Input: chain 1 N35I V37M
Response: ≥ 10 µM

Request: Returns the measured Kd for the input variant. Input: chain 1 W33F W36L
Response: ≥ 10 µM

Request: Returns the measured Kd for the input variant. Input: chain 1 S101R D106N
Response: ≥ 10 µM

Request: Returns the measured Kd for the input variant. Input: chain 1 D31Y N35I
Response: ≥ 10 µM

Request: Returns the measured Kd for the input variant. Input: chain 1 T28P F29V
Response: 0.00708 µM

Request: Returns the measured Kd for the input variant. Input: chain 1 G100L G104Q W108M
Response: ≥ 10 µM

Request: Returns the measured Kd for the input variant. Input: chain 1 F29Q S30G
Response: 0.0391 µM

Request: Returns the measured Kd for the input variant. Input: chain 1 Y102H G104F W108Y
Response: ≥ 10 µM

Request: Returns the measured Kd for the input variant. Input: chain 1 S101M G109H
Response: ≥ 10 µM

Request: Returns the measured Kd for the input variant. Input: chain 1 T28F W36H
Response: ≥ 10 µM

Request: Returns the measured Kd for the input variant. Input: chain 1 T28L N35D W36N
Response: ≥ 10 µM

Request: Returns the measured Kd for the input variant. Input: chain 1 G104Q Y107V
Response: ≥ 10 µM

Request: Returns the measured Kd for the input variant. Input: chain 1 Y103H G109M
Response: ≥ 10 µM

Request: Returns the measured Kd for the input variant. Input: chain 1 S30D W36R
Response: ≥ 10 µM

Request: Returns the measured Kd for the input variant. Input: chain 1 Y102L G109N
Response: ≥ 10 µM

Request: Returns the measured Kd for the input variant. Input: chain 1 G100S M105I
Response: ≥ 10 µM

Request: Returns the measured Kd for the input variant. Input: chain 1 Y107F G109E
Response: ≥ 10 µM

Request: Returns the measured Kd for the input variant. Input: chain 1 Y32R M34S
Response: ≥ 10 µM

Request: Returns the measured Kd for the input variant. Input: chain 1 Y32S N35E V37Q
Response: ≥ 10 µM

Request: Returns the measured Kd for the input variant. Input: chain 1 M105V G109Y
Response: ≥ 10 µM

Request: Returns the measured Kd for the input variant. Input: chain 1 M105N G109E
Response: ≥ 10 µM

Request: Returns the measured Kd for the input variant. Input: chain 1 T28A N35Y W36V
Response: ≥ 10 µM

Request: Returns the measured Kd for the input variant. Input: chain 1 Y103A Y107T
Response: 0.11 µM

Request: Returns the measured Kd for the input variant. Input: chain 1 F29H W36Q
Response: ≥ 10 µM

Request: Returns the measured Kd for the input variant. Input: chain 1 Y102M
Response: 4.6 µM

Request: Returns the measured Kd for the input variant. Input: chain 1 S101G Y103C
Response: ≥ 10 µM

Request: Returns the measured Kd for the input variant. Input: chain 1 F29W S30I
Response: ≥ 10 µM

Request: Returns the measured Kd for the input variant. Input: chain 1 Y102T Y103R
Response: ≥ 10 µM

Request: Returns the measured Kd for the input variant. Input: chain 1 F29P V37W
Response: ≥ 10 µM

Request: Returns the measured Kd for the input variant. Input: chain 1 Y102K M105N
Response: 0.02 µM

Request: Returns the measured Kd for the input variant. Input: chain 1 Y102T G104W
Response: ≥ 10 µM

Request: Returns the measured Kd for the input variant. Input: chain 1 W108R
Response: ≥ 10 µM

Request: Returns the measured Kd for the input variant. Input: chain 1 S101Y Y102W M105T
Response: ≥ 10 µM

Request: Returns the measured Kd for the input variant. Input: chain 1 T28E F29Y
Response: 0.00468 µM

Request: Returns the measured Kd for the input variant. Input: chain 1 T28E Y32V
Response: ≥ 10 µM

Request: Returns the measured Kd for the input variant. Input: chain 1 F29A V37I
Response: 0.0851 µM

Request: Returns the measured Kd for the input variant. Input: chain 1 G100E G109Y
Response: ≥ 10 µM

Request: Returns the measured Kd for the input variant. Input: chain 1 S101T M105S
Response: ≥ 10 µM

Request: Returns the measured Kd for the input variant. Input: chain 1 W108H
Response: 0.00468 µM

Request: Returns the measured Kd for the input variant. Input: chain 1 Y32H N35T
Response: ≥ 10 µM

Request: Returns the measured Kd for the input variant. Input: chain 1 Y102A
Response: 0.00162 µM

Request: Returns the measured Kd for the input variant. Input: chain 1 D106I W108Q
Response: ≥ 10 µM

Request: Returns the measured Kd for the input variant. Input: chain 1 F29Y N35W
Response: ≥ 10 µM

Request: Returns the measured Kd for the input variant. Input: chain 1 G104E Y107A
Response: ≥ 10 µM

Request: Returns the measured Kd for the input variant. Input: chain 1 S101R W108Q
Response: ≥ 10 µM

Request: Returns the measured Kd for the input variant. Input: chain 1 F29I W33M V37P
Response: ≥ 10 µM

Request: Returns the measured Kd for the input variant. Input: chain 1 W33D M34Q
Response: ≥ 10 µM

Request: Returns the measured Kd for the input variant. Input: chain 1 Y102D
Response: ≥ 10 µM

Request: Returns the measured Kd for the input variant. Input: chain 1 Y103M W108M
Response: 0.000333 µM

Request: Returns the measured Kd for the input variant. Input: chain 1 M105G G109S
Response: ≥ 10 µM

Request: Returns the measured Kd for the input variant. Input: chain 1 Y32H N35Q
Response: ≥ 10 µM

Request: Returns the measured Kd for the input variant. Input: chain 1 Y32W
Response: ≥ 10 µM

Request: Returns the measured Kd for the input variant. Input: chain 1 T28M Y32W
Response: ≥ 10 µM

Request: Returns the measured Kd for the input variant. Input: chain 1 M34C N35L V37F
Response: 0.0657 µM

Request: Returns the measured Kd for the input variant. Input: chain 1 T28N W33M
Response: ≥ 10 µM

Request: Returns the measured Kd for the input variant. Input: chain 1 S101K D106M
Response: ≥ 10 µM

Request: Returns the measured Kd for the input variant. Input: chain 1 F29A M34A
Response: ≥ 10 µM

Request: Returns the measured Kd for the input variant. Input: chain 1 T28I W36A
Response: ≥ 10 µM

Request: Returns the measured Kd for the input variant. Input: chain 1 Y103M G109W
Response: ≥ 10 µM

Request: Returns the measured Kd for the input variant. Input: chain 1 D31F N35I
Response: ≥ 10 µM

Request: Returns the measured Kd for the input variant. Input: chain 1 T28E V37T
Response: 0.00493 µM

Request: Returns the measured Kd for the input variant. Input: chain 1 G104F W108R
Response: 0.02 µM

Request: Returns the measured Kd for the input variant. Input: chain 1 T28D M34G
Response: 3.94 µM

Request: Returns the measured Kd for the input variant. Input: chain 1 Y103R Y107F
Response: 0.00546 µM
